src = the supplement of paper PMC10567573

Provide the recorded protein stability index for the entries that follow.
B1: COX4I1 (parent)
chain: VAHVKHLSASQKALKEKEKASWSS

Variants of: B1
Assay: protein stability index of a GFP-peptide fusion (GPS, HEK-293T) (PSI 1-6); higher = more stable;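 also: lentivirally expressed fusions sorted by FACS into six bins by GFP to DsRed ratio, PSI derived from sequencing read proportions per bin multiplied by bin number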
Details: c terminus: a fixed tail appended
Numbers only.

Could I get protein stability index for every one of these entries?
1. K12S
2. K17H
3. L14I
4. A2K
5. K17R
6. K5F
7. A2W

1: 3.64; 2: 3.26; 3: 3.46; 4: 3.02; 5: 3.49; 6: 2.45; 7: 2.92

Could I get protein stability index for every one of these entries?
1. K15T
2. S21C
3. K5A
4. E18F
5. A20R

3.48
3.74
3.67
2.51
3.65

Could I get protein stability index for every one of these entries?
1. V4Q
2. K19R
3. A20S
4. K19G
5. A2V

2.73
3.71
3.16
3.52
2.72

Could I get protein stability index for every one of these entries?
1. E16T
2. A20P
3. Q11A

1. 2.93
2. 3.36
3. 3.28

Could I get protein stability index for every one of these entries?
1. W22N
2. A13N

5.21
3.58
